Data provenance is patent US9452986B2.

tested target: recombinant human Nav1.7 (Homo sapiens (Human))
Sequence (Q15858 whole entry): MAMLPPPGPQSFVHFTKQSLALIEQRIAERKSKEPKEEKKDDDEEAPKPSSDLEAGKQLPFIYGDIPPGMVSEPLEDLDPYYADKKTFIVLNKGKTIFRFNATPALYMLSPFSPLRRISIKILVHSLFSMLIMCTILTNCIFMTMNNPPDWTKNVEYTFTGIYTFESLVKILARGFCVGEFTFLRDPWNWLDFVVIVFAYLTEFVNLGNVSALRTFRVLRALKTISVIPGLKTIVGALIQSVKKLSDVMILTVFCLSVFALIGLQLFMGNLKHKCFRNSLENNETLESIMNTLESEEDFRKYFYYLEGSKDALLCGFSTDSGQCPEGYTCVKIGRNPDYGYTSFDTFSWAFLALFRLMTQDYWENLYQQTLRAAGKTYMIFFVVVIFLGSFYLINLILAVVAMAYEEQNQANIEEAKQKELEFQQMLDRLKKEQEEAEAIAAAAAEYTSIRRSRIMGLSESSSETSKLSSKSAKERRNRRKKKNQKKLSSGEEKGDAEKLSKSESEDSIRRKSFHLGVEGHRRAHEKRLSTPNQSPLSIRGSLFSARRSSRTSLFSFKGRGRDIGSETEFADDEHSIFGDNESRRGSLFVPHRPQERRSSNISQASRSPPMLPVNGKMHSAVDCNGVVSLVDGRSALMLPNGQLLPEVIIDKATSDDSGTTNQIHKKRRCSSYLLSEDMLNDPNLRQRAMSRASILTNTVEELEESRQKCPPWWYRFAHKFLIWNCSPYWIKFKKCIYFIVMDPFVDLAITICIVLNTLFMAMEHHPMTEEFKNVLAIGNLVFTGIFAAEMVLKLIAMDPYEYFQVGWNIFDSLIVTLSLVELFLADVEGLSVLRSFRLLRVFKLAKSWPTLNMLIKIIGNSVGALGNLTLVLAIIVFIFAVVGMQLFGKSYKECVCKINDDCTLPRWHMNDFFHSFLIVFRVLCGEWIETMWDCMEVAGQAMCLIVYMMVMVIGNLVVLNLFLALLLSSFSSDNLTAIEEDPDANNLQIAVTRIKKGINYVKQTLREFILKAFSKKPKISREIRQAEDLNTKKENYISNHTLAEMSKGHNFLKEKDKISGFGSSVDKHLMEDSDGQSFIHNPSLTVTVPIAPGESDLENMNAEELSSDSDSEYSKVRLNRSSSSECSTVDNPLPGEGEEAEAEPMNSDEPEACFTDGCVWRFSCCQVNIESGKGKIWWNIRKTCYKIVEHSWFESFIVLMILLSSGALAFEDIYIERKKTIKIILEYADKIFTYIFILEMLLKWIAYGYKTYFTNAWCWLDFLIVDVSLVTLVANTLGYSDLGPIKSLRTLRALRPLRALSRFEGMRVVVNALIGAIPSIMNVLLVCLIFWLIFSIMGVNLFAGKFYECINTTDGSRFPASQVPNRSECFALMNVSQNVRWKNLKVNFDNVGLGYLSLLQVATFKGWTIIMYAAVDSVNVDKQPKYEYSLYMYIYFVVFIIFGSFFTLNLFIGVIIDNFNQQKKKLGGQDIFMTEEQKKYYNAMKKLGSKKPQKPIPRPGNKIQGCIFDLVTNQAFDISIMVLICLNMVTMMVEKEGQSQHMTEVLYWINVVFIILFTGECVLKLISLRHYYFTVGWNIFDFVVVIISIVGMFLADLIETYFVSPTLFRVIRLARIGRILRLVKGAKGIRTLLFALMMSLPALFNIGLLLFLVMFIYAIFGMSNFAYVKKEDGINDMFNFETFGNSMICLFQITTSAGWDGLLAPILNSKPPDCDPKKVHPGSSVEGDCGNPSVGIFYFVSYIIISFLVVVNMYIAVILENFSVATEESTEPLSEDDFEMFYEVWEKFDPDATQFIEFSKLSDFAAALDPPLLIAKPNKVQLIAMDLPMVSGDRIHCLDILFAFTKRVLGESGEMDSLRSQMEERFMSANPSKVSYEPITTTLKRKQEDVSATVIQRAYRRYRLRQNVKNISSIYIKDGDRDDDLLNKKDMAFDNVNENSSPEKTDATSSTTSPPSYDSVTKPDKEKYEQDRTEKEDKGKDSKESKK
protocol: FRET-based membrane potential assay, recombinant human sodium channel Nav1.7
Assay type: cell-based
condition context: read-out: FRET-Membrane Potential Nav1.7 IC50
Below is a list of entries, each paired with its recorded IC50 value.

- structure smiles: "CO[C@H]1CCN(C(=O)c2ccc3cc(Oc4ccc(C(F)(F)F)cn4)ccc3n2)C1"
  measurement units: "µM"
  IC50: 4.07
- structure smiles: "O=C(c1ccc2cc(Oc3ccc(C(F)F)cn3)ccc2n1)N1CC(N2CCOCC2)C1"
  measurement units: "µM"
  IC50: 13.8
- structure smiles: "O=C(c1ccc2cc(Oc3ccc(C(F)(F)F)cn3)ccc2n1)N1CCC2(C1)OCCO2"
  measurement units: "µM"
  IC50: 3.28

----------
tested target: recombinant human Nav1.8 (Homo sapiens (Human), UniProt Q9Y5Y9)
Sequence (Q9Y5Y9 whole entry): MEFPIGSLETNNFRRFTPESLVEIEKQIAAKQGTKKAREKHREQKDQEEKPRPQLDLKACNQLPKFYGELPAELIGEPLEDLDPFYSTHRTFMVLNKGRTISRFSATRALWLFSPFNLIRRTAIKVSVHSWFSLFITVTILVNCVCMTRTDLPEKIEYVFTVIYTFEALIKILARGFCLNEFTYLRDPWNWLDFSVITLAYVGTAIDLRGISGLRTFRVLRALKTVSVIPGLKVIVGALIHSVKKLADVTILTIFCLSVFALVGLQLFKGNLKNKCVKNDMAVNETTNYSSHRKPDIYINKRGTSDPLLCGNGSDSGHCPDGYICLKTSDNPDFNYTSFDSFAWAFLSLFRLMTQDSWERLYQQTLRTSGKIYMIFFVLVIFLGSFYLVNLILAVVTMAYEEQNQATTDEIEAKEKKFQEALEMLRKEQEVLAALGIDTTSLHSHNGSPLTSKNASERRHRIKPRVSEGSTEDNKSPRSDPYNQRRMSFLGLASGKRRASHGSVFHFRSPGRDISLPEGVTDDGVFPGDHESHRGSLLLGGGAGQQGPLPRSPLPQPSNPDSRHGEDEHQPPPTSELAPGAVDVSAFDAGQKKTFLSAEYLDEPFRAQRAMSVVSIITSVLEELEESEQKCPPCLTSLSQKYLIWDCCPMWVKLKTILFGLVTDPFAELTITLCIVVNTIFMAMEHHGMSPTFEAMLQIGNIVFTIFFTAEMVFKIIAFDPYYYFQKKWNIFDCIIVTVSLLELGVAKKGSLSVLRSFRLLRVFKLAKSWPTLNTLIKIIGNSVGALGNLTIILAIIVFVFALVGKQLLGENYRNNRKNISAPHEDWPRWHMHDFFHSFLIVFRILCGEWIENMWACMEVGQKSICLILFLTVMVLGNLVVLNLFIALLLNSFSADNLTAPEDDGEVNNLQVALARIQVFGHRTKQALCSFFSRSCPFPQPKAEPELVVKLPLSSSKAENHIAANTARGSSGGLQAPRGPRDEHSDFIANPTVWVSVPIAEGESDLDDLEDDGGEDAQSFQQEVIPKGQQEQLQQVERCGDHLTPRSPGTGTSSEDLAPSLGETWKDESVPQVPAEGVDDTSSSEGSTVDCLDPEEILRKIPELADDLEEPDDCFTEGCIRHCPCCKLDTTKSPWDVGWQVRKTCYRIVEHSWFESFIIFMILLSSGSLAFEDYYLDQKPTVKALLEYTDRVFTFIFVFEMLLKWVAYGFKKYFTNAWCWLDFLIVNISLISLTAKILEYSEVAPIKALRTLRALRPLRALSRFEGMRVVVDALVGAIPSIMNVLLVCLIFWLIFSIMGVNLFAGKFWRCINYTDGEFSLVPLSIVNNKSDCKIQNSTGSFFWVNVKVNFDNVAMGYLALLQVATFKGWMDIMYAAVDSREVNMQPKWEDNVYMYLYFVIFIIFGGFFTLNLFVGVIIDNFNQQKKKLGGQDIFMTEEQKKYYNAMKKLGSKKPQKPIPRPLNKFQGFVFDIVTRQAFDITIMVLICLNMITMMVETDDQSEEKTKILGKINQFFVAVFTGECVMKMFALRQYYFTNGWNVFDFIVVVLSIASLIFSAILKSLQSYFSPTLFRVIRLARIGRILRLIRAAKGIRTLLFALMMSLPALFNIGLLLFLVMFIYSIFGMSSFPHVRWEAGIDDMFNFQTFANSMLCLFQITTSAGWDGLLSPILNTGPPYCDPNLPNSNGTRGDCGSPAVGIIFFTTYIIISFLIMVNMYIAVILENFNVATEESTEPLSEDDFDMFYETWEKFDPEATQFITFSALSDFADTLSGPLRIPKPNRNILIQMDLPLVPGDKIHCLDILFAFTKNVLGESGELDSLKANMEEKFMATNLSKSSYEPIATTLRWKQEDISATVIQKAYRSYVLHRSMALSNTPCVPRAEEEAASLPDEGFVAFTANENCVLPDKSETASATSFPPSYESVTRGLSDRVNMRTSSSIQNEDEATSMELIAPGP
protocol: FRET-based membrane potential assay, recombinant human sodium channel Nav1.8
Type: cell-based
condition context: HEK293 cells stably expressing recombinant human Nav1.8; veratridine + scorpion venom depolarization
recorded metric: IC50 (nM)

- molecule: "COCCNC(=O)c1ccc2cc(Oc3ccc(C(F)(F)F)cn3)ccc2n1 [Example 22]"
  measurement units: "nM"
  recorded result: 3540
- molecule: "N[C@@H]1[C@H]2CN(C(=O)c3ccc4cc(Oc5ccc(C(F)F)cn5)ccc4n3)C[C@@H]12 [Example 49]"
  measurement units: "nM"
  recorded result: 702
- molecule: "C[C@@H]1CN(C(=O)c2ccc3cc(Oc4ccc(C(F)(F)F)nc4)ccc3n2)CCN1 [Example 62]"
  measurement units: "nM"
  recorded result: 120

----------
Below is a list of entries, each paired with its recorded IC50 value.
tested target: recombinant human Nav1.7 (Homo sapiens (Human))
protocol: FRET-based membrane potential assay, recombinant human sodium channel Nav1.7
Type: cell-based
condition context: HEK293 cells stably expressing recombinant human Nav1.7; veratridine + scorpion venom depolarization; read-out: FRET-Membrane Potential Nav1.7 IC50

- compound: "N#Cc1ccc(Oc2ccc3nc(C(=O)NCCCN4CCCCC4)ccc3c2)cc1"
  IC50: "0.221 µM"
- compound: "O=C(c1ccc2cc(Oc3ccc(C(F)(F)F)cn3)ccc2n1)N1CC2OCOC2C1 (centres unmarked)"
  IC50: "5.94 µM"
- compound: "COC(C)CNC(=O)c1ccc2cc(Oc3ccc(C(F)(F)F)cn3)ccc2n1 (centres unmarked)"
  IC50: "1 µM"
- compound: "O=C(NCCCc1ccccn1)c1ccc2cc(Oc3ccc(C(F)(F)F)cn3)ccc2n1"
  IC50: "0.91 µM"
- compound: "CC1(O)CC(NC(=O)c2ccc3cc(Oc4ccc(C(F)(F)F)cn4)ccc3n2)C1 (centres unmarked)"
  IC50: "0.972 µM"
- compound: "N#Cc1ccc(Oc2ccc3nc(C(=O)N[C@H]4CC[C@H](O)CC4)ccc3c2)cc1"
  IC50: "3.46 µM"
- compound: "O=C(c1ccc2cc(Oc3ccc(C(F)(F)F)cn3)ccc2n1)N1C[C@H](F)C[C@@H]1c1cc(F)ccc1F"
  IC50: "0.675 µM"
- compound: "COCCCNC(=O)c1ccc2cc(Oc3ccc(C(F)(F)F)cn3)ccc2n1"
  IC50: "1.59 µM"

----------
Below is a list of entries, each paired with its recorded inhibition in vivo at 100 mg/kg value.
Test system: spinal nerve ligated rats
protocol: Rat spinal nerve ligation (SNL) model of neuropathic pain, paw withdrawal threshold
Assay type: in vivo
condition context: SNL dose 100 mg/kg; rat, von Frey paw withdrawal threshold; read-out: SNL MPE
recorded metric: inhibition in vivo at 100 mg/kg (%)

- structure smiles: "O=C(NCC(F)(F)F)c1ccc2cc(Oc3ccc(C(F)(F)F)cn3)ccc2n1"
  recorded metric: "inhibition in vivo at 100 mg/kg"
  measurement units: "%"
  recorded result: 76
- structure smiles: "CN(C)C(=O)CNC(=O)c1ccc2cc(Oc3ccc(C(F)(F)F)cn3)ccc2n1"
  recorded metric: "inhibition in vivo at 100 mg/kg"
  measurement units: "%"
  recorded result: 50
- structure smiles: "COC[C@H]1CN(C(=O)c2ccc3cc(Oc4ccc(C(F)(F)F)cn4)ccc3n2)CCN1"
  recorded metric: "inhibition in vivo at 100 mg/kg"
  measurement units: "%"
  recorded result: 64
